- TESTED_SYSTEM: Cav1.1
- ASSAY_REMARKS: cell-based or functional assay
ENDPOINT_NAME: IC50

• GNDCLGFWSACNPKNDKCCANLVCSSKHKWCKGKL (modifications not checked) [Hs1a] = > 3000 nM

Each recorded value in this set is attributed to patent US20220089663A1.
